Would you kindly list IC50 for each of these molecules?
- Tested on: ULK kinase
- protocol text: pATG13 levels of mutant KRas A549 cells after treatment with ULK inhibitors in combination with trametinib (ELISA)
- Assay type: cell-based, human
- assay conditions: A549 (KRAS mutant) lung cancer cells, 250 nM trametinib, overnight, pS318-ATG13

Take a look at these entries with their results.
CCN1CCN(c2ccc(Nc3ncc(C(F)(F)F)c(NCCCN4CCCCC4=O)n3)c(C3CC3)c2)CC1; 10 to 100 nM
CN(C)CC1CN(c2ccc(Nc3ncc(C(F)(F)F)c(NCCCN4CCOCCC4=O)n3)c(C3CC3)c2)C1; 100 to 300 nM
CN1CCN(c2ccc(Nc3ncc(C(F)(F)F)c(NCCCN4CCOCC4=O)n3)c(C3CC3)c2)CC1; 100 to 300 nM

Next, consider the following molecule.
What does the data say about its IC50? Entry: CCc1cc(N2CCOCC2)ccc1Nc1ncc(C(F)(F)F)c(NCCCN2CCCOCC2=O)n1 > 600 nM

* * *

- experimental system: ULK1 kinase (Homo sapiens, UniProt O75385, E37A/K38A)
- Sequence (O75385 1-283 E37A/K38A): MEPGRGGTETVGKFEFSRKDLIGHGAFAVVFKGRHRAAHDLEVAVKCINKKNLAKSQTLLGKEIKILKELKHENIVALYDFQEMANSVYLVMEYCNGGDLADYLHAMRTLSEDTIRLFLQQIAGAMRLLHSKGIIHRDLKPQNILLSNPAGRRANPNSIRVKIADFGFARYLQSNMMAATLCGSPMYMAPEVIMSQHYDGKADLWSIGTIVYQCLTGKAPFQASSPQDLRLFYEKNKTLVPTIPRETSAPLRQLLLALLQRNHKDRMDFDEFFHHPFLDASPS
- protocol text: Biochemical assay for ULK1.3 (coupled pyruvate kinase/lactate dehydrogenase assay, peptide substrate)
- assay conditions: 0.1 nM ULK1 (residues 1-283), 1 mM ATP
Would you kindly list IC50 for each of these compounds?

CCc1cc(N2CC[C@H](C#N)C2)ccc1Nc1ncc(C(F)(F)F)c(NCCCN2CCCCC2=O)n1; 100 to 500 nM
COCc1cc(N2CCN(C)CC2)ccc1Nc1ncc(C(F)(F)F)c(NCCCN2CCCOC2=O)n1; 1 to 25 nM
CN1C2CCC1CN(c1ccc(Nc3ncc(C(F)(F)F)c(NCCCN4CCOCCC4=O)n3)c(C3CC3)c1)C2; 100 to 500 nM
CCc1cc(N2CC[C@@H](C#N)C2)ccc1Nc1ncc(C(F)(F)F)c(NCCCN2CCCCC2=O)n1; 100 to 500 nM
CC(C)c1cc(N2CCN(C)CC2)ccc1Nc1ncc(Br)c(NCCCN2CCCOCC2=O)n1; 25 to 100 nM

I'm hoping you can list IC50 for every compound here, please.
1. CN1C[C@H]2C[C@@H]1CN2c1ccc(Nc2ncc(C(F)(F)F)c(NCCCN3CCOCCC3=O)n2)c(C2CC2)c1
2. CC(=O)N1CCN(c2ccc(Nc3ncc(C(F)(F)F)c(NCCCN4CCCCC4=O)n3)c(C3CC3)c2)CC1
3. CCc1cc(N2CCN3CCC[C@H]3C2)ccc1Nc1ncc(C(F)(F)F)c(NCCCN2CCCOC2=O)n1
4. CCc1cc(C2CCN(C)C2)ccc1Nc1ncc(C(F)(F)F)c(NCCCN2CCOCCC2=O)n1 (stereo not drawn)
5. CN1CCN(c2ccc(Nc3ncc(C(F)(F)F)c(NCCCN4CCOCC4=O)n3)c(C3CC3)c2)CC1

["1 to 25 nM", "25 to 100 nM", "1 to 25 nM", "1 to 25 nM", "25 to 100 nM"]

* * *

- experimental system: ULK1 kinase (Homo sapiens, UniProt O75385, E37A/K38A)
- protocol text: Biochemical assay for ULK1.3 (coupled pyruvate kinase/lactate dehydrogenase assay, peptide substrate)
- assay conditions: 0.1 nM ULK1 (residues 1-283), 1 mM ATP
pIC50: −log10 of the molar value.
Would you kindly list pIC50 for each of these molecules?

Take a look at these entries with their results.
CN(C)C1CN(c2ccc(Nc3ncc(C(F)(F)F)c(NCCCN4CCCCC4=O)n3)c(C3CC3)c2)C1 [Example 126]; 7.60 to 9.00
CCc1cc(N2C[C@H]3C[C@@H]2CN3C)ccc1Nc1ncc(C(F)(F)F)c(NCCCN2CCOCCC2=O)n1 [Example 124]; 7.60 to 9.00
CCc1cc(N2CCN(C)CC2)ccc1Nc1ncc(C#N)c(NCCCN2CCOCCC2=O)n1 [Example 129]; 7.00 to 7.60
CCc1cc(N2CCN(C)CC2)ccc1Nc1ncc(C2CC2)c(NCCCN2CCCOC2=O)n1 [Example 45]; 6.30 to 7.00

I'm hoping you can list pIC50 for every molecule here, please.
1. CN1CCN(c2ccc(Nc3cc(NCCCN4CCCCC4=O)c(C(F)(F)F)cn3)c(C3CC3)c2)CC1 [Example 94]
2. CCc1cc(N2CCNCC2)ccc1Nc1ncc(C(F)(F)F)c(NCCCN2CCOCCC2=O)n1 [Example 84]
3. CN1CCN(c2ccc(Nc3ncc(Br)c(NCCCN4CCCCC4=O)n3)c(C3CC3)c2)CC1 [Example 26]
4. O=C1CCOCCN1CCCNc1nc(Nc2ccc(N3CCN4CCC[C@@H]4C3)cc2C2CC2)ncc1C(F)(F)F [Example 107]

1: 7.00 to 7.60; 2: 7.60 to 9.00; 3: 7.60 to 9.00; 4: 7.60 to 9.00
